src = ChEMBL document CHEMBL1147446

Kindly state IC90 for each of the entries shown.
System: HeLa
Test: Antiviral activities in a cell culture HIV-1 infectivity inhibition assay using HeLa cells plus 50% normal human serum
Assay type: functional
Reply with the number, then its unit.

Can you share its IC90? I mean this molecule: CCn1nc(Cc2ccc(Cl)cc2)cc1C1CCN(C[C@H]2CN([C@@H](C(=O)O)C(C)C)C[C@@H]2c2cccc(F)c2)CC1
300 nM

Can you share its IC90? I mean this molecule: CC[C@H](C)[C@H](C(=O)O)N1C[C@H](CN2CCC(c3cc(Cc4ccc(-c5ccccc5)cc4)nn3CC)CC2)[C@@H](c2cccc(F)c2)C1
33 nM

Can you share its IC90? I mean this molecule: CCCOc1ccc(Cc2cc(C3CCN(C[C@H]4CN([C@@H](C(=O)O)[C@@H](C)CC)C[C@@H]4c4cccc(F)c4)CC3)n(CC)n2)cc1
100 nM

Can you share its IC90? I mean this molecule: CCn1nc(Cc2ccc(O)cc2)cc1C1CCN(C[C@H]2CN([C@@H](C(=O)O)C3CCCCC3)C[C@@H]2c2cccc(F)c2)CC1
33 nM

Can you share its IC90? I mean this molecule: CCn1nc(Cc2cccc3ccccc23)cc1C1CCN(C[C@H]2CN([C@@H](C(=O)O)C(C)(C)C)C[C@@H]2c2cccc(F)c2)CC1
11 nM

Can you share its IC90? I mean this molecule: CC[C@@H](C)[C@H](C(=O)O)N1C[C@H](CN2CCC(c3cc(Cc4cccc(CN)c4)nn3CC)CC2)[C@@H](c2cccc(F)c2)C1
33 nM

Can you share its IC90? I mean this molecule: CCn1nc(Cc2ccc(F)cc2F)cc1C1CCN(C[C@H]2CN([C@@H](C(=O)O)C3CCCCC3)C[C@@H]2c2cccc(F)c2)CC1
33 nM

Can you share its IC90? I mean this molecule: CCn1nc(Cc2ccc(OCc3ccccc3)cc2)cc1C1CCN(C[C@H]2CN([C@@H](C(=O)O)C(C)(C)C)C[C@@H]2c2cccc(F)c2)CC1
300 nM

Can you share its IC90? I mean this molecule: CCn1nc(Cc2ccc(OC(F)F)cc2)cc1C1CCN(C[C@H]2CN([C@@H](C(=O)O)C(C)(C)C)C[C@@H]2c2cccc(F)c2)CC1
11 nM

Can you share its IC90? I mean this molecule: CCCOc1ccc(Cc2cc(C3CCN(C[C@H]4CN([C@@H](C(=O)O)C5CCCCC5)C[C@@H]4c4cccc(F)c4)CC3)n(CC)n2)cc1
100 nM

Can you share its IC90? I mean this molecule: CC[C@@H](C)[C@H](C(=O)O)N1C[C@H](CN2CCC(c3cc(Cc4ccc(OCC(F)(F)F)cc4)nn3CC)CC2)[C@@H](c2cccc(F)c2)C1
100 nM

Can you share its IC90? I mean this molecule: CCn1nc(Cc2ccc(-c3ccccc3)cc2)cc1C1CCN(C[C@H]2CN([C@@H](C(=O)O)C(C)(C)C)C[C@@H]2c2cccc(F)c2)CC1
100 nM

Can you share its IC90? I mean this molecule: CCn1nc(Cc2ccc(-c3ccccc3)cc2)cc1C1CCN(C[C@H]2CN([C@@H](C(=O)O)C3CCCCC3)C[C@@H]2c2cccc(F)c2)CC1
11 nM

---

Tested on: HeLa
Assay: Antiviral activities in a cell culture HIV-1 infectivity inhibition assay using HeLa cells plus 50% normal human serum
Format: functional
recorded metric: IC90 (nM)
Answer with a number only, understood to be in nM.

Can you share its IC90? I mean this compound: CCn1nc(Cc2ccc(C(F)(F)F)cc2)cc1C1CCN(C[C@H]2CN([C@@H](C(=O)O)C(C)(C)C)C[C@@H]2c2cccc(F)c2)CC1
33

Can you share its IC90? I mean this compound: CCn1nc(Cc2ccc(C(F)(F)F)cc2)cc1C1CCN(C[C@H]2CN([C@@H](C(=O)O)C3CCCCC3)C[C@@H]2c2cccc(F)c2)CC1
33

Can you share its IC90? I mean this compound: CCn1nc(Cc2cccnc2)cc1C1CCN(C[C@H]2CN([C@@H](C(=O)O)C(C)C)C[C@@H]2c2cccc(F)c2)CC1
300

Can you share its IC90? I mean this compound: CC[C@H](C)[C@H](C(=O)O)N1C[C@H](CN2CCC(c3cc(Cc4ccc(OC(C)(C)C)cc4)nn3CC)CC2)[C@@H](c2cccc(F)c2)C1
11

---

Target: C-C chemokine receptor type 5 (Homo sapiens)
Sequence (P51681 whole entry): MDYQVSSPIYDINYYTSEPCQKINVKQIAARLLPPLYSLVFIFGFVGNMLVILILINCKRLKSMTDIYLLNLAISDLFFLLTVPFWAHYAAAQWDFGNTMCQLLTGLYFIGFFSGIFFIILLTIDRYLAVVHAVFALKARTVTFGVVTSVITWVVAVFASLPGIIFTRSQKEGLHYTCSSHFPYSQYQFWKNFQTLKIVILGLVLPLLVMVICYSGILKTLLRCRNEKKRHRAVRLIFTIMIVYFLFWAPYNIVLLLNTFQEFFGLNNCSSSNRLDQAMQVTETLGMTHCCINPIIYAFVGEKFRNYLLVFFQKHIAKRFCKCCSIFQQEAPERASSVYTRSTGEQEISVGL
Assay: Inhibitory concentration for displacement of [125I]-MIP-1 alpha from recombinant human CC chemokine receptor 5 (CCR5) expressed in CHO cell
pIC50: −log10 of the molar value.
Label Y for high-side pIC50 (at or above 9) and N for low-side pIC50 (below it).

Does CCOc1ccc(Cc2cc(C3CCN(C[C@H]4CN([C@@H](C(=O)O)[C@H](C)CC)C[C@@H]4c4cccc(F)c4)CC3)n(CC)n2)cc1F have a reported pIC50 of at least 9?
Y

Does CCn1nc(Cc2ccc(OC(C)(C)C)cc2)cc1C1CCN(C[C@H]2CN([C@@H](C(=O)O)C(C)(C)C)C[C@@H]2c2cccc(F)c2)CC1 have a reported pIC50 of at least 9?
N

Does CC[C@H](C)[C@H](C(=O)O)N1C[C@H](CN2CCC(c3cc(Cc4ccc(C(C)(C)C)cc4)nn3CC)CC2)[C@@H](c2cccc(F)c2)C1 have a reported pIC50 of at least 9?
Y

Does CC[C@@H](C)[C@H](C(=O)O)N1C[C@H](CN2CCC(c3cc(Cc4ccc(-c5ccccc5)cc4)nn3CC)CC2)[C@@H](c2cccc(F)c2)C1 have a reported pIC50 of at least 9?
Y

Does CCn1nc(Cc2ccc(Oc3ccccc3)cc2)cc1C1CCN(C[C@H]2CN([C@@H](C(=O)O)C3CCCCC3)C[C@@H]2c2cccc(F)c2)CC1 have a reported pIC50 of at least 9?
Y

Does CC[C@@H](C)[C@H](C(=O)O)N1C[C@H](CN2CCC(c3cc(Cc4ccc(OC)c(OC)c4)nn3CC)CC2)[C@@H](c2cccc(F)c2)C1 have a reported pIC50 of at least 9?
N

---

Biological target: C-C chemokine receptor type 5 (Homo sapiens)
Assay: Inhibitory concentration for displacement of [125I]-MIP-1 alpha from recombinant human CC chemokine receptor 5 (CCR5) expressed in CHO cell
Type: cell-based
recorded metric: IC50 (nM)
Answer with a number only, understood to be in nM.

Form entry - test system: C-C chemokine receptor type 5 (Homo sapiens); read-out: IC50; compound: CCn1nc(Cc2ccc(OC)c(OC)c2)cc1C1CCN(C[C@H]2CN([C@@H](C(=O)O)C(C)(C)C)C[C@@H]2c2cccc(F)c2)CC1
1.2

Form entry - test system: C-C chemokine receptor type 5 (Homo sapiens); read-out: IC50; compound: CC[C@@H](C)[C@H](C(=O)O)N1C[C@H](CN2CCC(c3cc(Cc4ccc(C(C)(C)C)cc4)nn3CC)CC2)[C@@H](c2cccc(F)c2)C1
0.8

Form entry - test system: C-C chemokine receptor type 5 (Homo sapiens); read-out: IC50; compound: CC[C@@H](C)[C@H](C(=O)O)N1C[C@H](CN2CCC(c3cc(Cc4cccc5ccccc45)nn3CC)CC2)[C@@H](c2cccc(F)c2)C1
0.2

Form entry - test system: C-C chemokine receptor type 5 (Homo sapiens); read-out: IC50; compound: CCOc1cccc(Cc2cc(C3CCN(C[C@H]4CN([C@@H](C(=O)O)[C@@H](C)CC)C[C@@H]4c4cccc(F)c4)CC3)n(CC)n2)c1
0.9

Form entry - test system: C-C chemokine receptor type 5 (Homo sapiens); read-out: IC50; compound: CC[C@H](C)[C@H](C(=O)O)N1C[C@H](CN2CCC(c3cc(Cc4ccc5ccccc5c4)nn3CC)CC2)[C@@H](c2cccc(F)c2)C1
0.3

Form entry - test system: C-C chemokine receptor type 5 (Homo sapiens); read-out: IC50; compound: CCCOc1ccc(Cc2cc(C3CCN(C[C@H]4CN([C@@H](C(=O)O)[C@@H](C)CC)C[C@@H]4c4cccc(F)c4)CC3)n(CC)n2)cc1
1.1

Form entry - test system: C-C chemokine receptor type 5 (Homo sapiens); read-out: IC50; compound: CC[C@H](C)[C@H](C(=O)O)N1C[C@H](CN2CCC(c3cc(Cc4ccc(OC)c(C#N)c4)nn3CC)CC2)[C@@H](c2cccc(F)c2)C1
0.5

Form entry - test system: C-C chemokine receptor type 5 (Homo sapiens); read-out: IC50; compound: CCn1nc(Cc2ccc(O)cc2)cc1C1CCN(C[C@H]2CN([C@@H](C(=O)O)C3CCCCC3)C[C@@H]2c2cccc(F)c2)CC1
0.5

Form entry - test system: C-C chemokine receptor type 5 (Homo sapiens); read-out: IC50; compound: CCn1nc(Cc2ccc(OC(F)(F)F)cc2)cc1C1CCN(C[C@H]2CN([C@@H](C(=O)O)C(C)C)C[C@@H]2c2cccc(F)c2)CC1
0.8

Form entry - test system: C-C chemokine receptor type 5 (Homo sapiens); read-out: IC50; compound: CCOc1ccc(Cc2cc(C3CCN(C[C@H]4CN([C@@H](C(=O)O)C(C)(C)C)C[C@@H]4c4cccc(F)c4)CC3)n(CC)n2)cc1F
0.7

Form entry - test system: C-C chemokine receptor type 5 (Homo sapiens); read-out: IC50; compound: CCCOc1ccc(Cc2cc(C3CCN(C[C@H]4CN([C@@H](C(=O)O)C(C)(C)C)C[C@@H]4c4cccc(F)c4)CC3)n(CC)n2)cc1
0.8

Form entry - test system: C-C chemokine receptor type 5 (Homo sapiens); read-out: IC50; compound: CCn1nc(Cc2ccc3c(c2)OCO3)cc1C1CCN(C[C@H]2CN([C@@H](C(=O)O)C(C)(C)C)C[C@@H]2c2cccc(F)c2)CC1
0.7

Form entry - test system: C-C chemokine receptor type 5 (Homo sapiens); read-out: IC50; compound: CC[C@H](C)[C@H](C(=O)O)N1C[C@H](CN2CCC(c3cc(Cc4ccc(C#N)cc4)nn3CC)CC2)[C@@H](c2cccc(F)c2)C1
1.3

Form entry - test system: C-C chemokine receptor type 5 (Homo sapiens); read-out: IC50; compound: CC[C@H](C)[C@H](C(=O)O)N1C[C@H](CN2CCC(c3cc(Cc4ccc(C(F)(F)F)cc4)nn3CC)CC2)[C@@H](c2cccc(F)c2)C1
0.5

Form entry - test system: C-C chemokine receptor type 5 (Homo sapiens); read-out: IC50; compound: CCn1nc(Cc2ccc(S(=O)(=O)c3ccccc3)cc2)cc1C1CCN(C[C@H]2CN([C@@H](C(=O)O)C3CCCCC3)C[C@@H]2c2cccc(F)c2)CC1
0.8

Form entry - test system: C-C chemokine receptor type 5 (Homo sapiens); read-out: IC50; compound: CCCCOc1ccc(Cc2cc(C3CCN(C[C@H]4CN([C@@H](C(=O)O)C(C)C)C[C@@H]4c4cccc(F)c4)CC3)n(CC)n2)cc1
0.5

Form entry - test system: C-C chemokine receptor type 5 (Homo sapiens); read-out: IC50; compound: CCn1nc(Cc2ccc(OC)cc2)cc1C1CCN(C[C@H]2CN([C@@H](C(=O)O)C(C)(C)C)C[C@@H]2c2cccc(F)c2)CC1
1.5

Form entry - test system: C-C chemokine receptor type 5 (Homo sapiens); read-out: IC50; compound: CC[C@H](C)[C@H](C(=O)O)N1C[C@H](CN2CCC(c3cc(Cc4cccc(OC)c4)nn3CC)CC2)[C@@H](c2cccc(F)c2)C1
1.2

Form entry - test system: C-C chemokine receptor type 5 (Homo sapiens); read-out: IC50; compound: CCn1nc(Cc2ccc(OC)cc2)cc1C1CCN(C[C@H]2CN([C@@H](C(=O)O)C(C)C)C[C@@H]2c2cccc(F)c2)CC1
1.3

Form entry - test system: C-C chemokine receptor type 5 (Homo sapiens); read-out: IC50; compound: CCn1nc(Cc2ccc(C)cc2)cc1C1CCN(C[C@H]2CN([C@@H](C(=O)O)C(C)(C)C)C[C@@H]2c2cccc(F)c2)CC1
0.6

Form entry - test system: C-C chemokine receptor type 5 (Homo sapiens); read-out: IC50; compound: CC[C@H](C)[C@H](C(=O)O)N1C[C@H](CN2CCC(c3cc(Cc4ccc(O)cc4)nn3CC)CC2)[C@@H](c2cccc(F)c2)C1
1.4

Form entry - test system: C-C chemokine receptor type 5 (Homo sapiens); read-out: IC50; compound: CCn1nc(Cc2cccnc2)cc1C1CCN(C[C@H]2CN([C@@H](C(=O)O)C3CCCCC3)C[C@@H]2c2cccc(F)c2)CC1
3.9

Form entry - test system: C-C chemokine receptor type 5 (Homo sapiens); read-out: IC50; compound: CCn1nc(Cc2ccc(OC)c(C#N)c2)cc1C1CCN(C[C@H]2CN([C@@H](C(=O)O)C(C)(C)C)C[C@@H]2c2cccc(F)c2)CC1
0.9

Form entry - test system: C-C chemokine receptor type 5 (Homo sapiens); read-out: IC50; compound: CCn1nc(Cc2ccc(Oc3ccccc3)cc2)cc1C1CCN(C[C@H]2CN([C@@H](C(=O)O)C(C)(C)C)C[C@@H]2c2cccc(F)c2)CC1
0.4

Form entry - test system: C-C chemokine receptor type 5 (Homo sapiens); read-out: IC50; compound: CCn1nc(Cc2ccc(F)cc2F)cc1C1CCN(C[C@H]2CN([C@@H](C(=O)O)C(C)C)C[C@@H]2c2cccc(F)c2)CC1
5

Form entry - test system: C-C chemokine receptor type 5 (Homo sapiens); read-out: IC50; compound: CC[C@@H](C)[C@H](C(=O)O)N1C[C@H](CN2CCC(c3cc(Cc4ccccc4)nn3CC)CC2)[C@@H](c2cccc(F)c2)C1
0.9

Form entry - test system: C-C chemokine receptor type 5 (Homo sapiens); read-out: IC50; compound: CC[C@H](C)[C@H](C(=O)O)N1C[C@H](CN2CCC(c3cc(Cc4ccc(OC(F)(F)F)cc4)nn3CC)CC2)[C@@H](c2cccc(F)c2)C1
1.1
